Reported metric: pIC50
Answer as the number alone; pIC50 is minus log10 of concentration in mol/L.

# lookup: Cytochrome P450 2C9 (Homo sapiens, UniProt P11712) pIC50, key = `CCN1c2ncc(CCOc3ccc(C(=O)O)cc3C)cc2C(=O)N(C)c2cccnc21`
# Sequence (P11712 whole entry): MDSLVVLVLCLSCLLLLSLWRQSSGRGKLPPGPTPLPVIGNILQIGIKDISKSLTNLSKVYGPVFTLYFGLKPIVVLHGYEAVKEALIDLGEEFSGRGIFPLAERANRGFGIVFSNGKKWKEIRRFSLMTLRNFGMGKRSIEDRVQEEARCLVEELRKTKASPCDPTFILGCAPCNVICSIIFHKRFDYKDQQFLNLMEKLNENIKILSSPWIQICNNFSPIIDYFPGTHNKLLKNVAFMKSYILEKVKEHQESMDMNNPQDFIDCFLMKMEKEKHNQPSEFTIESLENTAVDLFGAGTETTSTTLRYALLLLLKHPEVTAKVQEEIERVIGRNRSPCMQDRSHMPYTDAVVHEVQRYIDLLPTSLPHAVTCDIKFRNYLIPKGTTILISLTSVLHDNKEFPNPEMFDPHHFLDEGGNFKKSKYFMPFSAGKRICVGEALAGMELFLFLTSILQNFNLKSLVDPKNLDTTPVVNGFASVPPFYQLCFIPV
5.00

* * *

Method: Steady state volume of distribution is determined in dog after intravenous administration 1 mg/kg
Assay type: ADME, organism-based, Canis lupus familiaris
Parameters: dose 1 mg/kg, route intravenous
Condition label: in vivo, read-out: Vss
Reported metric: Vd (L/kg)
Report the figure in L/kg without appending any unit label.

Return Vd for the following compound: `CCN1c2ncc(CCOc3ccc(C(=O)O)cc3C)cc2C(=O)N(C)c2cccnc21`
2.5
